The reported measurements were obtained from patent US20220064275A1.

- target: T1, human LRRC33-proTGFβ1 complex (human, UniProt Q86YC3 19-650; P01137 30-390)
- T1 construct: also called hLRRC33-proTGFβ1; hLRRC33
- T1 sequence (Q86YC3 other isoform, or with tags, fused parts or gaps limits assumed, chain 1 of 2): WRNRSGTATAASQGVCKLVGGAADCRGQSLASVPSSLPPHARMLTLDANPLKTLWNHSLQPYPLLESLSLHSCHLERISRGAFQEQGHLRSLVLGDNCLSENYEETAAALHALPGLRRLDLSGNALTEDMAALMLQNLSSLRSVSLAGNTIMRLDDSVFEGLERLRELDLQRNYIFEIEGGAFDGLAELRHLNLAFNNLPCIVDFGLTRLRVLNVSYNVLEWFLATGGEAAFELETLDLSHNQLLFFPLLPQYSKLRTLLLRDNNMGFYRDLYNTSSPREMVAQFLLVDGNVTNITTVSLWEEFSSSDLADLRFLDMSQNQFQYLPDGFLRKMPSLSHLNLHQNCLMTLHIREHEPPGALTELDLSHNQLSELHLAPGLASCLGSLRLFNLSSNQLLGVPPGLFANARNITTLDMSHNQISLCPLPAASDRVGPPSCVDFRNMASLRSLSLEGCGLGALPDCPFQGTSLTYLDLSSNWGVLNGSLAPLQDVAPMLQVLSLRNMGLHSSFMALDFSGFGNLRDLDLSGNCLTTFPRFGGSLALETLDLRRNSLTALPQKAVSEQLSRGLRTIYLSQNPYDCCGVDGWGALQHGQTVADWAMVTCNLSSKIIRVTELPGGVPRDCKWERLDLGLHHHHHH
- T1 sequence (P01137 30-390 limits assumed, chain 2 of 2): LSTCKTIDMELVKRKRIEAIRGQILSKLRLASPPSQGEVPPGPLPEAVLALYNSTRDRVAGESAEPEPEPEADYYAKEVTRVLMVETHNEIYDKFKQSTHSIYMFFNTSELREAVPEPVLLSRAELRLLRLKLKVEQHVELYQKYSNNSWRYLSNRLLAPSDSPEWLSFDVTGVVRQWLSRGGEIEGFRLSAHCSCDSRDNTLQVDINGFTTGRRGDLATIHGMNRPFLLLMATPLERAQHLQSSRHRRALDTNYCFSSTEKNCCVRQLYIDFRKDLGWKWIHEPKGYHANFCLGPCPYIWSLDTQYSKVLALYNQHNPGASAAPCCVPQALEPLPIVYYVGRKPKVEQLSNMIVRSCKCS
- method_description: BLI (Octet)
Listed next: entries and their corresponding Kd.

{"binder": "Ab2 (antibody, human IgG4 S228P, kappa, V domains shown) VH: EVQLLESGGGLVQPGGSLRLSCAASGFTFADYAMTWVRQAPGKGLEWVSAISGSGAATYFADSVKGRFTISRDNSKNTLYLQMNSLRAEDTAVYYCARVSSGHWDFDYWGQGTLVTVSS VL: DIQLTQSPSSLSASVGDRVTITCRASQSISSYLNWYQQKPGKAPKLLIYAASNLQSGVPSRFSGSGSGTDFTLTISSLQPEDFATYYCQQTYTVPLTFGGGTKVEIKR", "Kd / pM": 508}
{"binder": "Ab16 (antibody, V domains shown) VH: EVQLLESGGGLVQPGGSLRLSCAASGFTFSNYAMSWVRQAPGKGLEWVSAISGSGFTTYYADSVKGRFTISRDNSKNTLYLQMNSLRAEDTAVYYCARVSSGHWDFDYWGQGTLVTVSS VL: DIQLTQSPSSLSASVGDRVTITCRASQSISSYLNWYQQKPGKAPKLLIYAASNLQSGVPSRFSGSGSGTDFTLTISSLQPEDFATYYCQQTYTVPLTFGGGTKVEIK", "Kd / pM": 631}
{"binder": "Ab22 (antibody, IgG4, V domains shown) VH: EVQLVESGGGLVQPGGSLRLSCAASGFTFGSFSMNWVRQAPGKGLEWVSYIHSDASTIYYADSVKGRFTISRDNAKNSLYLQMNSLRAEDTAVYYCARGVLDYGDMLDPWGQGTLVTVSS VL: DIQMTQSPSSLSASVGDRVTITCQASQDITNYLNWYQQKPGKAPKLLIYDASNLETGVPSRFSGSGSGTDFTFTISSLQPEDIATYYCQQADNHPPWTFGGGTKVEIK", "Kd / pM": 415}
